# SYSTEM UNDER TEST: Histone deacetylase 4 (Homo sapiens)
# PROTOCOL DETAILS: Inhibition of human HDAC4 expressed in baculovirus expression system in Sf9 cells using Boc-Lys(trifluoroacetyl)-AMC fluorogenic peptide as substrate and measured after 2 hrs by fluorescence based analysis
pIC50: −log10 of the molar value.
QUANTITY MEASURED: pIC50

smiles_input=O=C(NO)c1ccc(Cn2c(=O)[nH]c(=O)c3cccc(Cl)c32)cc1 quantity_measured=pIC50 numeric_result=6.29
smiles_input=Cc1nc2cc(/C=C/C(=O)NO)ccc2c(=O)n1-c1ccccc1 quantity_measured=pIC50 numeric_result=4.52

====

# SYSTEM UNDER TEST: Histone deacetylase 11 (Homo sapiens, UniProt Q96DB2)
# Sequence (Q96DB2 whole entry): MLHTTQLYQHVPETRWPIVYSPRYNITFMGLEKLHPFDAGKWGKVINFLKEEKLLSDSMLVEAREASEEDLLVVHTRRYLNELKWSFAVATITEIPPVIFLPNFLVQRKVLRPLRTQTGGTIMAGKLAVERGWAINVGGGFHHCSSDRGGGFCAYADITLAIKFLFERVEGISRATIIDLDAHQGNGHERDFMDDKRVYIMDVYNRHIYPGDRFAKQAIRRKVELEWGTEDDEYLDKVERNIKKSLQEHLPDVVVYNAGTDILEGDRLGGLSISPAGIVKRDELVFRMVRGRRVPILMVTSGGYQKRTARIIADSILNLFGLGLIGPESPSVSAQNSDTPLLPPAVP
# PROTOCOL DETAILS: Inhibition of human HDAC11 expressed in baculovirus expression system in Sf9 cells using Boc-Lys(trifluoroacetyl)-AMC fluorogenic peptide as substrate and measured after 2 hrs by fluorescence based analysis
pIC50: −log10 of the molar value.
pIC50 reference
QUANTITY MEASURED: pIC50

smiles_input=O=C(NO)c1ccc(Cn2c(=O)[nH]c(=O)c3cccc(Cl)c32)cc1 numeric_result=6.09
smiles_input=Cc1nc2cc(/C=C/C(=O)NO)ccc2c(=O)n1-c1ccccc1 numeric_result=5.33

====

# SYSTEM UNDER TEST: Histone deacetylase 9 (Homo sapiens)
# Sequence (Q9UKV0 whole entry): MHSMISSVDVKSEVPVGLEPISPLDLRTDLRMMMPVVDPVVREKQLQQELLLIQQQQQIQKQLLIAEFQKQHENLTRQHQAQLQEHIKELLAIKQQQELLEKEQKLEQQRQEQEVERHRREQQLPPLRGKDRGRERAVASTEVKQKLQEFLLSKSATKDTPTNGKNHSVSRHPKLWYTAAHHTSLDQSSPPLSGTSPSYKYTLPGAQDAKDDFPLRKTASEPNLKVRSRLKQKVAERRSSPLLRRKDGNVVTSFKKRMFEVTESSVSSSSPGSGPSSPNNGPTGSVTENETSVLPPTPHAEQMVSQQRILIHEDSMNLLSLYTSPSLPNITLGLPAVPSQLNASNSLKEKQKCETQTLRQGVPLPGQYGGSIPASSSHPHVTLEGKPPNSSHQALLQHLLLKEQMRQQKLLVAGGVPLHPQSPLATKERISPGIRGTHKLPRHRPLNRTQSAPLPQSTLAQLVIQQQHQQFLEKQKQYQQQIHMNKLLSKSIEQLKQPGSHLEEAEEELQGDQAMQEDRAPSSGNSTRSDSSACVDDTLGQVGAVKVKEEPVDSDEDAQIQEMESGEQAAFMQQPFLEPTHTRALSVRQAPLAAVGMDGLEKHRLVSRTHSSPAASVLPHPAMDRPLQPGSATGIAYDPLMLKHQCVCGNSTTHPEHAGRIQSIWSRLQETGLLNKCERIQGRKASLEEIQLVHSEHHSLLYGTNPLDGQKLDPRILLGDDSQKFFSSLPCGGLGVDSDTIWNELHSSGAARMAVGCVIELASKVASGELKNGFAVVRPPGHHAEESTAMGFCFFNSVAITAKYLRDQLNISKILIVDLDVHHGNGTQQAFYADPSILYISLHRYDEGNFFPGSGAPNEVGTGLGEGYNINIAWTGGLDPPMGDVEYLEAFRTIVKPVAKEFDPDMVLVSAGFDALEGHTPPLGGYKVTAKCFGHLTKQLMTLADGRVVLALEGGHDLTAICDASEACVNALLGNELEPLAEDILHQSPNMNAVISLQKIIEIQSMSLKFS
# PROTOCOL DETAILS: Inhibition of human HDAC9 expressed in baculovirus expression system in Sf9 cells using Boc-Lys(trifluoroacetyl)-AMC fluorogenic peptide as substrate and measured after 2 hrs by fluorescence based analysis
QUANTITY MEASURED: IC50

smiles_input=Cc1nc2cc(/C=C/C(=O)NO)ccc2c(=O)n1-c1ccccc1 quantity_measured=IC50 result="30 µM"
smiles_input=O=C(NO)c1ccc(Cn2c(=O)[nH]c(=O)c3cccc(Cl)c32)cc1 quantity_measured=IC50 result="0.431 µM"

====

# SYSTEM UNDER TEST: Histone deacetylase 5 (Homo sapiens)
# Sequence (Q9UQL6 whole entry): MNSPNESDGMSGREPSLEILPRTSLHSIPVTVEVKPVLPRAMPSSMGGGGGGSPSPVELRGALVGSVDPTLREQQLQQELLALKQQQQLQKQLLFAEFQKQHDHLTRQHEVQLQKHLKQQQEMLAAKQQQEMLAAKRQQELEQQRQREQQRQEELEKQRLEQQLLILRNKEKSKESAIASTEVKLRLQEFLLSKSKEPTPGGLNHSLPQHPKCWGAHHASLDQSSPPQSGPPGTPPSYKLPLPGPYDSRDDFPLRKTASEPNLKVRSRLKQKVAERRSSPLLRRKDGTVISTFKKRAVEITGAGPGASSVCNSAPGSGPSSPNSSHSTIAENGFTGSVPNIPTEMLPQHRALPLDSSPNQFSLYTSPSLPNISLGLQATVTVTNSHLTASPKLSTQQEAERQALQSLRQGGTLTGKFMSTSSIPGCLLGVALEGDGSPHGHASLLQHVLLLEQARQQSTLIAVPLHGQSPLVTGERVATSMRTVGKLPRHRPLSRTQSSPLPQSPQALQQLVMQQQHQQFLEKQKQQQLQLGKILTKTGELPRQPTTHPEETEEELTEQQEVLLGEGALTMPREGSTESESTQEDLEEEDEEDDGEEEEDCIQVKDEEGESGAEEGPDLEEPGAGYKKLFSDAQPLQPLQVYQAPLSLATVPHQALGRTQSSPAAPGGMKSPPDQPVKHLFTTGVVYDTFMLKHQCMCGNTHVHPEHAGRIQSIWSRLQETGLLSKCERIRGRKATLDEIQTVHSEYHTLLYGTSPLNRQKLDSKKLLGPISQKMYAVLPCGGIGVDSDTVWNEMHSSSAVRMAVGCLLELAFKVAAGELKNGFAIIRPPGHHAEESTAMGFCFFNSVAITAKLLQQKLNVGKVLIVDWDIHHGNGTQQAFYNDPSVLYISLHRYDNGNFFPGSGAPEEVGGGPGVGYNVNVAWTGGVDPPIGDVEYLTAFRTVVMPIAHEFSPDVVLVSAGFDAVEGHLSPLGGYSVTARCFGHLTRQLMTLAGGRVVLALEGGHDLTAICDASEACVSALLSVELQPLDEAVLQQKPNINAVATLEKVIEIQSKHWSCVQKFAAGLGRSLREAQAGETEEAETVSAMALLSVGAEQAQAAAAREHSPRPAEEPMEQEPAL
# PROTOCOL DETAILS: Inhibition of human HDAC5 expressed in baculovirus expression system in Sf9 cells using Boc-Lys(trifluoroacetyl)-AMC fluorogenic peptide as substrate and measured after 2 hrs by fluorescence based analysis
pIC50: −log10 of the molar value.
Overview of reported pIC50 across a group of molecules:
QUANTITY MEASURED: pIC50

smiles_input=Cc1nc2cc(/C=C/C(=O)NO)ccc2c(=O)n1-c1ccccc1 numeric_result=5.07
smiles_input=O=C(NO)c1ccc(Cn2c(=O)[nH]c(=O)c3cccc(Cl)c32)cc1 numeric_result=6.68

====

# PROTOCOL DETAILS: in vitro
# CONDITIONS USED: human, Caco-2
# Description: Apparent permeability across apical to basolateral side in human Caco-2 cells at 10 uM preincubated for 10mins followed by compound addition and measured after 90 mins by LC-MS/MS analysis
Some compounds, each annotated with its measured Papp A→B at 1.5 h, 10 µM.
QUANTITY MEASURED: Papp A→B at 1.5 h, 10 µM (×10⁻⁶ cm/s)

smiles_input=O=C(NO)c1ccc(Cn2c(=O)[nH]c(=O)c3cccc(Cl)c32)cc1 quantity_measured="Papp A→B at 1.5 h, 10 µM" output_unit="×10⁻⁶ cm/s" numeric_result=1.4
smiles_input=O=C(NO)c1ccc(/C=C/c2nc3ccccc3c(=O)[nH]2)cc1 quantity_measured="Papp A→B at 1.5 h, 10 µM" output_unit="×10⁻⁶ cm/s" numeric_result=0.3

====

Form field: half-life at 1 h, 200 µM (one value per entry).
# PROTOCOL DETAILS: in vitro
# CONDITIONS USED: human, microsomes
QUANTITY MEASURED: half-life at 1 h, 200 µM

smiles_input=Cc1nc2ccc(/C=C/CC(=O)NO)cc2c(=O)n1-c1ccccc1 quantity_measured="half-life at 1 h, 200 µM" result="> 3.11 h"
smiles_input=Cc1nc2cc(/C=C/C(=O)NO)ccc2c(=O)n1-c1ccccc1 quantity_measured="half-life at 1 h, 200 µM" result="> 3.11 h"

====

# PROTOCOL DETAILS: Antiproliferative activity against human Pulmonary fibroblast cells assessed as reduction in cell viability by measuring optimal working concentration incubated for 3 days by CCK-8 assay
# Assay type: functional
# CONDITIONS USED: time 3 day
QUANTITY MEASURED: MEC (µM)

smiles_input=O=C(NO)c1ccc(-c2nc3ccccc3c(=O)[nH]2)cc1 quantity_measured=MEC numeric_result=5
smiles_input=O=C(NO)c1ccc(/C=C/c2nc3ccccc3c(=O)[nH]2)cc1 quantity_measured=MEC numeric_result=10
smiles_input=O=C(NO)c1ccc(Cn2c(=O)[nH]c(=O)c3cccc(Cl)c32)cc1 quantity_measured=MEC numeric_result=10
smiles_input=Cc1nc2ccc(/C=C/CC(=O)NO)cc2c(=O)n1-c1ccccc1 quantity_measured=MEC numeric_result=10
smiles_input=Cc1nc2cc(/C=C/C(=O)NO)ccc2c(=O)n1-c1ccccc1 quantity_measured=MEC numeric_result=10

====

Quick reference: IC50 of the listed items.
# SYSTEM UNDER TEST: Protein deacetylase HDAC6 (Homo sapiens, UniProt Q9UBN7)
# Sequence (Q9UBN7 whole entry, the tested form may be a part): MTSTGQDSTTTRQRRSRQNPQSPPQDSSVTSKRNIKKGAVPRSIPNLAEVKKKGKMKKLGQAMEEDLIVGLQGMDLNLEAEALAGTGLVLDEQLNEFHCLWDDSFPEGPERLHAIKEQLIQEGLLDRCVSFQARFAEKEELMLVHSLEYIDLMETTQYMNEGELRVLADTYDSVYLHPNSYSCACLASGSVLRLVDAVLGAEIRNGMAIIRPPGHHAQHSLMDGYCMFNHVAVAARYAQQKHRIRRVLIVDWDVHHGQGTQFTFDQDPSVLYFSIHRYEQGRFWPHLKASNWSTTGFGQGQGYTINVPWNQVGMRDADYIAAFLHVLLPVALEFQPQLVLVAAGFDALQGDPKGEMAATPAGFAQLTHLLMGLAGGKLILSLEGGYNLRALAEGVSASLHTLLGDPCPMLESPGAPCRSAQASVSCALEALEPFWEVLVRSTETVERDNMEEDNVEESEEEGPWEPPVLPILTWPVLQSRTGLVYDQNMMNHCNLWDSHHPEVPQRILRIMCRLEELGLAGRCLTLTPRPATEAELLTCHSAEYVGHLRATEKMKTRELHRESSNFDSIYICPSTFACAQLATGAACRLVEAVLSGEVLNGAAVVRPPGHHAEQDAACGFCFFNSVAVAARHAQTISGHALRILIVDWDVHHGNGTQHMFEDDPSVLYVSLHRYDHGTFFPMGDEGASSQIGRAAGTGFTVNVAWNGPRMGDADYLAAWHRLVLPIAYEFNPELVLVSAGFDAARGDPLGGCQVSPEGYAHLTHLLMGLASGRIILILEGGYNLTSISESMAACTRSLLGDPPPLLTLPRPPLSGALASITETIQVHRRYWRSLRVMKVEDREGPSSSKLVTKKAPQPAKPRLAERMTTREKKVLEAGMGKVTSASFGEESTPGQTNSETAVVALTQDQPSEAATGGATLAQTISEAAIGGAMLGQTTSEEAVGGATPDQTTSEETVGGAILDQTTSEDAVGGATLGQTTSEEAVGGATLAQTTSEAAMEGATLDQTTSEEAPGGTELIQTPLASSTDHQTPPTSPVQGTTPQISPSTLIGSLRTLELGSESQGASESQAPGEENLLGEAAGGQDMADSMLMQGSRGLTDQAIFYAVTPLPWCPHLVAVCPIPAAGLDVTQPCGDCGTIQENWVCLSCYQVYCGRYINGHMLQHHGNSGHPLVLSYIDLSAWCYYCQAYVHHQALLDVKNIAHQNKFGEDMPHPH
# PROTOCOL DETAILS: Inhibition of human HDAC6 expressed in baculovirus expression system in Sf9 cells using RHKKAc (379 to 382 residues) fluorogenic peptide as substrate and measured after 2 hrs by fluorescence based analysis
QUANTITY MEASURED: IC50

smiles_input=O=C(NO)c1ccc(Cn2c(=O)[nH]c(=O)c3ccc(C(F)(F)F)cc32)cc1 quantity_measured=IC50 result="58 nM"
smiles_input=O=C(CS)Nc1ccc(Cn2c(=O)[nH]c(=O)c3cccc(Cl)c32)cc1 quantity_measured=IC50 result="5.3 nM"
smiles_input=O=C(CCn1c(=O)n(CCc2ccccc2)c(=O)c2ccccc21)NO quantity_measured=IC50 result="798 nM"
smiles_input=O=C(NO)c1ccc(Cn2c(=O)[nH]c(=O)c3cc(F)ccc32)cc1 quantity_measured=IC50 result="6 nM"
smiles_input=O=C(NO)c1ccc(Cn2c(=O)[nH]c(=O)c3ccc(F)cc32)cc1 quantity_measured=IC50 result="1.6 nM"
smiles_input=O=C(NO)c1ccc(-c2nc3ccccc3c(=O)[nH]2)cc1 quantity_measured=IC50 result="317 nM"
smiles_input=Cc1nc2cc(/C=C/C(=O)NO)ccc2c(=O)n1-c1ccccc1 quantity_measured=IC50 result="62 nM"
smiles_input=CCc1nc2ccc(/C=C/CC(=O)NO)cc2c(=O)n1-c1ccccc1 quantity_measured=IC50 result="285 nM"
smiles_input=Cc1nc2ccc(/C=C/CC(=O)NO)cc2c(=O)n1-c1ccccc1 quantity_measured=IC50 result="168 nM"
smiles_input=O=C(CCn1c(=O)n(Cc2ccccc2)c(=O)c2ccc(Cl)cc21)NO quantity_measured=IC50 result="47 nM"
smiles_input=O=C(NO)c1ccc(Cn2c(=O)n(CCc3ccccc3)c(=O)c3ccccc32)c(F)c1 quantity_measured=IC50 result="108 nM"
smiles_input=O=C(NO)c1ccc(Cn2c(=O)[nH]c(=O)c3cc(Br)ccc32)cc1 quantity_measured=IC50 result="18 nM"
smiles_input=Cn1c(CCC(=O)NO)nc2ccccc2c1=O quantity_measured=IC50 result="22000 nM"
smiles_input=O=C(NO)c1ccc(Cn2c(=O)[nH]c(=O)c3cccc(Cl)c32)cc1 quantity_measured=IC50 result="10 nM"
smiles_input=O=C(NO)c1ccc(Cn2c(=O)[nH]c(=O)c3c(Cl)cccc32)cc1 quantity_measured=IC50 result="13 nM"
smiles_input=O=C(NO)c1cccc(Cn2c(=O)[nH]c(=O)c3cccc(Cl)c32)c1 quantity_measured=IC50 result="5950 nM"
smiles_input=O=C(NO)c1ccc(/C=C/c2nc3ccccc3c(=O)[nH]2)cc1 quantity_measured=IC50 result="28 nM"

====

# SYSTEM UNDER TEST: Histone deacetylase 1 (Homo sapiens, UniProt Q13547)
# Sequence (Q13547 whole entry, the tested form may be a part): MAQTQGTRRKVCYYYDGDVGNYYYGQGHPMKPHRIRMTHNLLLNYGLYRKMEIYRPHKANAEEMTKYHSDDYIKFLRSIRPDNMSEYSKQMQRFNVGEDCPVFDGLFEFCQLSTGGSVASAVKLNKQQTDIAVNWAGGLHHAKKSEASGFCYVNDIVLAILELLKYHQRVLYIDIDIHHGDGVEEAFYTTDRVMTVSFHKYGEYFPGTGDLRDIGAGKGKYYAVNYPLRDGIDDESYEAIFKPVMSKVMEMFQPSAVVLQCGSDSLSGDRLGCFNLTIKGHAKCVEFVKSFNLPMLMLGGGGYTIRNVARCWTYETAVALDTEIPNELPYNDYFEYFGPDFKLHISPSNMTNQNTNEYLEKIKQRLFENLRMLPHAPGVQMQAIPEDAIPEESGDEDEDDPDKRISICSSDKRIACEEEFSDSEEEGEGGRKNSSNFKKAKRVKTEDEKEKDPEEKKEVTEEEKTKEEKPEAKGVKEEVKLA
# PROTOCOL DETAILS: Inhibition of human HDAC1 expressed in baculovirus expression system in Sf9 cells using RHKKAc (379 to 382 residues) fluorogenic peptide as substrate and measured after 2 hrs by fluorescence based analysis
pIC50: −log10 of the molar value.
QUANTITY MEASURED: pIC50

smiles_input=O=C(NO)c1ccc(Cn2c(=O)[nH]c(=O)c3c(Cl)cccc32)cc1 censoring_operator== numeric_result=5.48
smiles_input=O=C(NO)c1ccc(Cn2c(=O)n(CCc3ccccc3)c(=O)c3ccccc32)cc1 censoring_operator=< numeric_result=5.00
smiles_input=O=C(NO)c1ccc(Cn2c(=O)[nH]c(=O)c3cc(F)ccc32)cc1 censoring_operator== numeric_result=5.90
smiles_input=O=C(NO)c1ccc(Cn2c(=O)[nH]c(=O)c3cc(Br)ccc32)cc1 censoring_operator== numeric_result=5.37
smiles_input=Cc1nc2ccc(/C=C/CC(=O)NO)cc2c(=O)n1-c1ccccc1 censoring_operator== numeric_result=4.76
smiles_input=Cn1c(CCC(=O)NO)nc2ccccc2c1=O censoring_operator=< numeric_result=4.52
smiles_input=O=C(NO)c1cccc(Cn2c(=O)[nH]c(=O)c3cccc(Cl)c32)c1 censoring_operator=< numeric_result=4.52
smiles_input=O=C(NO)c1ccc(Cn2c(=O)[nH]c(=O)c3ccc(F)cc32)cc1 censoring_operator== numeric_result=6.37
smiles_input=O=C(NO)c1ccc(-c2nc3ccccc3c(=O)[nH]2)cc1 censoring_operator=< numeric_result=4.52
smiles_input=O=C(NO)c1ccc(Cn2c(=O)[nH]c(=O)c3cccc(Cl)c32)cc1 censoring_operator== numeric_result=6.72
smiles_input=O=C(CCn1c(=O)n(CCc2ccccc2)c(=O)c2ccccc21)NO censoring_operator=< numeric_result=5.00
smiles_input=O=C(NO)c1ccc(Cn2c(=O)[nH]c(=O)c3ccc(C(F)(F)F)cc32)cc1 censoring_operator== numeric_result=5.29
smiles_input=CCc1nc2ccc(/C=C/CC(=O)NO)cc2c(=O)n1-c1ccccc1 censoring_operator== numeric_result=4.80
smiles_input=O=C(CCn1c(=O)n(Cc2ccccc2)c(=O)c2ccc(Cl)cc21)NO censoring_operator=< numeric_result=5.00
smiles_input=O=C(NO)c1ccc(/C=C/c2nc3ccccc3c(=O)[nH]2)cc1 censoring_operator== numeric_result=4.79
smiles_input=O=C(NO)c1ccc(Cn2c(=O)n(CCc3ccccc3)c(=O)c3ccccc32)c(F)c1 censoring_operator== numeric_result=4.84
